- Tested on: Staphylococcus sp.
- Test Summary: In vitro antibacterial evaluation: minimum inhibitory concentration (MIC), broth dilution method
- Type: cell-based
- Stated Conditions: Coagulase Negative Staphylococcus (GC 4547); 18 hours at 35° C.
Assay Endpoint: MIC Coagulase Negative Staphylococcus (GC 4547) (µg/mL)
Just the number in µg/mL, nothing appended.

CCOc1cc(COCC2OC(OC3C(CO)OC(Oc4ccc(CC5NC(=O)C(C(C)c6ccccc6)NC(=O)CNC(=O)C(CO)NC(=O)C(C(O)C6CNC(=N)N6C6OC(CO)C(O)C(O)C6O)NC(=O)C(C(O)C6CNC(=N)N6)NC5=O)cc4)C(O)C3O)C(O)C(O)C2O)ccc1OC (centres unmarked) [Example 238] : 2

Next item in the queue.
Please give measured MIC Coagulase Negative Staphylococcus (GC 4547) of the following entry: COc1ccc2cc(COC3C(OC4C(CO)OC(Oc5ccc(CC6NC(=O)C(C(C)c7ccccc7)NC(=O)CNC(=O)C(CO)NC(=O)C(C(O)C7CNC(=N)N7C7OC(CO)C(O)C(O)C7O)NC(=O)C(C(O)C7CNC(=N)N7)NC6=O)cc5)C(O)C4O)OC(CO)C(O)C3O)ccc2c1 (centres unmarked) [Example 230c] 64

====

- Test Summary: Anatomic pathology (heart and kidney histopathology) in mice
- Type: in vivo, CD-1 mice
- Stated Conditions: 20 mg/kg intravenously daily for 9 days, microscopic histopathology on day 10
Assay Endpoint: Anatomical Pathology (Day 10), Kidney

CC(c1ccccc1)C1NC(=O)CNC(=O)C(CO)NC(=O)C(C(O)C2CNC(=N)N2C2OC(CO)C(O)C(O)C2O)NC(=O)C(C(O)C2CNC(=N)N2)NC(=O)C(Cc2ccc(OC3OC(CO)C(OC4OC5COC(c6ccccc6)OC5C(O)C4O)C(O)C3O)cc2)NC1=O (stereo not shown) : +++
CC(c1ccccc1)C1NC(=O)CNC(=O)C(CO)NC(=O)C(C(O)C2CNC(=NCc3ccccc3)N2C2OC(CO)C(O)C(O)C2O)NC(=O)C(C(O)C2CNC(=N)N2)NC(=O)C(Cc2ccc(OC3OC(CO)C(OC4OC5COC6(OC5C(O)C4O)C4CC5CC(C4)CC6C5)C(O)C3O)cc2)NC1=O (stereo not shown) : ++
CC(c1ccccc1)C1NC(=O)CNC(=O)C(CO)NC(=O)C(C(O)C2CNC(=N)N2C2OC(CO)C(O)C(O)C2O)NC(=O)C(C(O)C2CNC(=N)N2)NC(=O)C(Cc2ccc(OC3OC(CO)C(OC4OC5COC(c6ccc(C(=O)O)cc6)OC5C(O)C4O)C(O)C3O)cc2)NC1=O (stereo not shown) : +++
CCCCCCCN1CC(C(O)C2NC(=O)C(C(O)C3CNC(=N)N3)NC(=O)C(Cc3ccc(OC4OC(CO)C(OC5OC(CO)C(O)C(O)C5O)C(O)C4O)cc3)NC(=O)C(C(C)c3ccccc3)NC(=O)CNC(=O)C(CO)NC2=O)N(C2OC(CO)C(O)C(O)C2O)C1=N (stereo not shown) : 0

====

- Test system: Staphylococcus sp.
- Test Summary: In vitro antibacterial evaluation: minimum inhibitory concentration (MIC), broth dilution method
- Type: cell-based
- Stated Conditions: Staphylococcus aureus (ATCC 29213); 18 hours at 35° C.
Binary label based on MIC Staphylococcus aureus (ATCC 29213) with cut-off 4 mg/L: below gives criterion met, not below gives criterion not met.

Problem: For the molecule CC(c1ccccc1)C1NC(=O)CNC(=O)C(CO)NC(=O)C(C(O)C2CNC(=N)N2C2OC(CO)C(O)C(O)C2O)NC(=O)C(C(O)C2CNC(=N)N2)NC(=O)C(Cc2ccc(OC3OC(CO)C(OC4OC(COC(=O)NCc5ccccc5)C(O)C(O)C4O)C(O)C3O)cc2)NC1=O (stereo not shown) [Example 257b] , is MIC Staphylococcus aureus (ATCC 29213) under 4 mg/L? criterion met

Problem: For the molecule CC(=O)OCC1OC(OC2C(CO)OC(Oc3ccc(CC4NC(=O)C(C(C)c5ccccc5)NC(=O)CNC(=O)C(CO)NC(=O)C(C(O)C5CNC(=N)N5C5OC(CO)C(O)C(O)C5O)NC(=O)C(C(O)C5CNC(=N)N5)NC4=O)cc3)C(O)C2O)C(O)C(OC(=O)CCC(C)C)C1O (stereo not shown) [Example 270b] , is MIC Staphylococcus aureus (ATCC 29213) under 4 mg/L? criterion not met

Problem: For the molecule CC(C)CC(=O)OCC1OC(OC2C(CO)OC(Oc3ccc(CC4NC(=O)C(Cc5ccccc5)NC(=O)CNC(=O)C(CO)NC(=O)C(C(O)C5CNC(=N)N5C5OC(CO)C(O)C(O)C5O)NC(=O)C(C(O)C5CNC(=N)N5)NC4=O)cc3)C(O)C2O)C(O)C(O)C1O (stereo not shown) [Example 283c] , is MIC Staphylococcus aureus (ATCC 29213) under 4 mg/L? criterion not met

Problem: For the molecule CC(C)CC(=O)OC1C(O)C(CO)OC(OC2C(CO)OC(Oc3ccc(CC4NC(=O)C(C(C)c5cccs5)NC(=O)CNC(=O)C(CO)NC(=O)C(C(O)C5CNC(=N)N5C5OC(CO)C(O)C(O)C5O)NC(=O)C(C(O)C5CNC(=N)N5)NC4=O)cc3)C(O)C2O)C1O (stereo not shown) [Example 265b] , is MIC Staphylococcus aureus (ATCC 29213) under 4 mg/L? criterion not met

Attribution: patent US8247211B2
